- SYSTEM: UniProt G1T4Q9
- Sequence (G1T4Q9 60-263): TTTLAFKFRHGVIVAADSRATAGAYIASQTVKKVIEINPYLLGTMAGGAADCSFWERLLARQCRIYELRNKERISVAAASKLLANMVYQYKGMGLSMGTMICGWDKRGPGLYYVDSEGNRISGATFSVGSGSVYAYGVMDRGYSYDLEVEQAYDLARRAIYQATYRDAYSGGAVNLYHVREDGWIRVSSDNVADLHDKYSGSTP
Non-standard residues stand in square brackets, D forms with d. Residues, ends and D or L forms follow the SMILES beside them. *: point of attachment. Cha = N[C@@H](CC1CCCCC1)C(=O)O; AllylGly = C=CC[C@H](N)C(=O)O; Nva = CCC[C@H](N)C(=O)O; Cbz = O=C(OCc1ccccc1)*; Bn = c1ccc(C*)cc1
PARAMETER MEASURED: Ki (nM)
Answer format: numeric, nM implied, no suffix.

Worked examples, 2 compounds total:
1. CCC[C@@H](C=O)NC(=O)[C@H](CC(C)C)NC(=O)[C@H](CC1CCCCC1)NC(=O)OCc1ccccc1 [MG 141] (Cbz-[Cha]-Leu-[Nva]-aldehyde) | 50
2. C=CC[C@@H](C=O)NC(=O)[C@H](CC(C)C)NC(=O)[C@H](CC(C)C)NC(=O)OCc1ccccc1 [MG 139] (Cbz-Leu-Leu-[AllylGly]-aldehyde) | 20

Tell me measured Ki for CC(C)C[C@H](NC(=O)OCc1ccccc1)C(=O)N[C@@H](CC(C)C)C(=O)N[C@H](C=O)Cc1ccc(OCc2ccccc2)cc1 [MG 153] (Cbz-Leu-Leu-Tyr(Bn)-aldehyde) please.
280

* * *

- SYSTEM: UniProt G1T4Q9
- Sequence (G1T4Q9 1-263): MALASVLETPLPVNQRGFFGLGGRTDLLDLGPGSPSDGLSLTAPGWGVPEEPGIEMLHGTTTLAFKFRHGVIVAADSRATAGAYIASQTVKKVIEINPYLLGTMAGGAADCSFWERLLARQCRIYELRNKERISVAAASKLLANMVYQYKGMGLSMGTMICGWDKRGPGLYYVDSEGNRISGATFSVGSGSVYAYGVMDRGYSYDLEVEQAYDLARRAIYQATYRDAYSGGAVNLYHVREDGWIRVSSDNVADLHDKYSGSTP
- TEST: Inhibition of the 20S proteasome (kinetic experiments, Ki)
- Assay type: biochemical, Rabbit
- Design: Ki 20 S; substrate Suc-LLVY-AMC
- SETTINGS: Rabbit muscle, SDS-activated; substrate Suc-LLVY-AMC
Non-standard residues stand in square brackets, D forms with d. Residues, ends and D or L forms follow the SMILES beside them. *: point of attachment. Nle = CCCC[C@H](N)C(=O)O; Cbz = O=C(OCc1ccccc1)*
PARAMETER MEASURED: Ki (nM)
Answer format: numeric, nM implied, no suffix.

Worked examples, 2 molecules total:
1. CSCC[C@@H](C=O)NC(=O)[C@H](CC(C)C)NC(=O)[C@H](CC(C)C)NC(C)=O [MG 102, reference compound] (Ac-Leu-Leu-Met-aldehyde) | 1000
2. CCCC[C@@H](C=O)NC(=O)[C@H](CC(C)C)NC(=O)[C@H](CC(C)C)NC(=O)OCc1ccccc1 [MG 114, Z-Leu-Leu-Nle-H] (Cbz-Leu-Leu-[Nle]-aldehyde) | 47

Turning to the following molecule.
Tell me measured Ki for CC(C)C[C@H](NC(=O)OCc1ccccc1)C(=O)N[C@@H](CC(C)C)C(=O)N[C@H](C=O)Cc1ccccc1 [MG 110, Z-Leu-Leu-Phe-H] (Cbz-Leu-Leu-Phe-aldehyde) please.
48

* * *

- SYSTEM: calpain, 80 kD catalytic subunit
- TEST: Inhibition of calpain (Ki)
- SETTINGS: Rabbit muscle, substrate Suc-LLVY-AMC, [CaCl2] = 1 mM, [DTT] = 2 mM, pH 7.8, 20° C.
Non-standard residues stand in square brackets, D forms with d. Residues, ends and D or L forms follow the SMILES beside them. *: point of attachment. Nle = CCCC[C@H](N)C(=O)O; Abu = CC[C@H](N)C(=O)O; Cbz = O=C(OCc1ccccc1)*
Measured pKi values are reported for all entries that follow.
Just so you know, pKi here is -log10 of the concentration in molar units; reply with that number alone.

Worked examples, 3 molecules total:
1. CC(C)C[C@H](NC(=O)OCc1ccccc1)C(=O)N[C@@H](CC(C)C)C(=O)N[C@H](C=O)Cc1ccccc1 [MG 110, Z-Leu-Leu-Phe-H] (Cbz-Leu-Leu-Phe-aldehyde) | 7.21
2. CCCC[C@@H](C=O)NC(=O)[C@H](CC(C)C)NC(=O)[C@H](CC(C)C)NC(C)=O [MG 101, Ac-Leu-Leu-Nle-H] (Ac-Leu-Leu-[Nle]-aldehyde) | 8.30
3. CC(C)C[C@H](NC(=O)OCc1ccccc1)C(=O)N[C@@H](CC(C)C)C(=O)N[C@@H](C)C=O [MG 111] (Cbz-Leu-Leu-Ala-aldehyde) | 7.96

Tell me measured pKi for CC(C)C[C@H](NC(=O)OCc1ccccc1)C(=O)N[C@@H](CC(C)C)C(=O)N[C@H](C=O)C(C)C [MG 120] (Cbz-Leu-Leu-Val-aldehyde) please.
7.85

Tell me measured pKi for CC[C@@H](C=O)NC(=O)[C@H](CC(C)C)NC(=O)[C@H](CC(C)C)NC(=O)OCc1ccccc1 [MG 119] (Cbz-Leu-Leu-[Abu]-aldehyde) please.
7.82

Tell me measured pKi for CSCC[C@@H](C=O)NC(=O)[C@H](CC(C)C)NC(=O)[C@H](CC(C)C)NC(C)=O [MG 102, reference compound] (Ac-Leu-Leu-Met-aldehyde) please.
6.92

* * *

Dear all, this message contains Ki results, target or system cathepsin B (Bos taurus, UniProt P07688).
Non-standard residues stand in square brackets, D forms with d. Residues, ends and D or L forms follow the SMILES beside them. *: point of attachment. 2Nal = N[C@@H](Cc1ccc2ccccc2c1)C(=O)O; Nle = CCCC[C@H](N)C(=O)O; Cbz = O=C(OCc1ccccc1)*
Answer format: numeric, nM implied, no suffix.

1) CC(C)C[C@H](NC(=O)OCc1ccccc1)C(=O)N[C@@H](CC(C)C)C(=O)N[C@@H](C)C=O [MG 111] (Cbz-Leu-Leu-Ala-aldehyde) | 6
2) CC(C)C[C@H](NC(=O)OCc1ccccc1)C(=O)N[C@@H](CC(C)C)C(=O)NCC=O [MG 118] (Cbz-Leu-Leu-Gly-aldehyde) | 94
3) CC(C)C[C@H](NC(=O)OCc1ccccc1)C(=O)N[C@@H](CC(C)C)C(=O)N[C@H](C=O)Cc1ccccc1 [MG 110, Z-Leu-Leu-Phe-H] (Cbz-Leu-Leu-Phe-aldehyde) | 100
4) CSCC[C@@H](C=O)NC(=O)[C@H](CC(C)C)NC(=O)[C@H](CC(C)C)NC(C)=O [MG 102, reference compound] (Ac-Leu-Leu-Met-aldehyde) | 94
5) CCCC[C@@H](C=O)NC(=O)[C@H](CC(C)C)NC(=O)[C@H](CC(C)C)NC(=O)OCc1ccccc1 [MG 114, Z-Leu-Leu-Nle-H] (Cbz-Leu-Leu-[Nle]-aldehyde) | 7

Tell me its Ki on cathepsin B (Bos taurus, UniProt P07688): CC(C)C[C@H](NC(=O)OCc1ccccc1)C(=O)N[C@@H](CC(C)C)C(=O)N[C@H](C=O)C(C)C [MG 120] (Cbz-Leu-Leu-Val-aldehyde)
36

Tell me its Ki on cathepsin B (Bos taurus, UniProt P07688): CC(C)C[C@H](NC(=O)OCc1ccccc1)C(=O)N[C@@H](CC(C)C)C(=O)N[C@H](C=O)Cc1ccc2ccccc2c1 [MG 121, Z-Leu-Leu-Nal-H] (Cbz-Leu-Leu-[2Nal]-aldehyde)
73
